details: in DMF, 320.45 K
READOUT KIND: solubility (mole fraction)
Keep it simple and answer with nothing but the number.

Query: Would you kindly share the measured solubility (mole fraction) for O=C1C=CC(=O)N1c1cc(F)c(Br)c(F)c1 ?
Result: 0.0426

* * *

settings: in 1,4-dioxane, 347.25 K
READOUT KIND: solubility (mole fraction)
When you answer, write just the number.

Query: Record request: solubility (mole fraction) value, item O=C1C=CC(=O)N1c1cc(F)c(Br)c(F)c1
Result: 0.0639

* * *

settings: in DMSO, 305.95 K
READOUT KIND: solubility (mole fraction)
Write the number on its own, no unit after it.

Query: // query solubility (mole fraction) value for entry O=C1C=CC(=O)N1c1cc(F)c(Br)c(F)c1
Result: 0.0184

Origin of measurements: BigSolDB 2.1
